Test: Cytotoxicity against mouse L929 cells at 0.1 mM assessed as cell viability after 24 hrs by MTT assay
Type: cell-based
Conditions: read-out: Activity
Below, each entry is listed alongside its reported viability at 24 h, 100 µM.

structure: Cc1cc(NS(=O)(=O)c2ccc(N3C(=O)c4c(F)c(F)c(F)c(F)c4C3=O)cc2)no1
viability at 24 h, 100 µM: < 50%

Ask | Fill in reported viability at 24 h, 100 µM for this entry: "COc1ncnc(NS(=O)(=O)c2ccc(N3C(=O)c4c(F)c(F)c(F)c(F)c4C3=O)cc2)c1OC"
Reply | < 50%

====

Test system: L929
Test: Cytotoxicity against mouse L929 cells at 0.1 mM after 24 hrs by MTT assay
Assay type: cell-based
Conditions: l929, 24 h, 100 µM
measurement.type: Activity

Field: example entries. Status: answers known.
structure: Cc1cc(C)nc(NS(=O)(=O)c2ccc(N3C(=O)c4c(F)c(F)c(F)c(F)c4C3=O)cc2)n1
Activity: Toxic

structure: COc1ncnc(NS(=O)(=O)c2ccc(N3C(=O)c4c(F)c(F)c(F)c(F)c4C3=O)cc2)c1OC
Activity: Toxic

structure: CC(=O)NS(=O)(=O)c1ccc(N2C(=O)c3ccccc3C2=O)cc1
Activity: Non-toxic

structure: O=C(NS(=O)(=O)c1ccc(N2C(=O)c3c(F)c(F)c(F)c(F)c3C2=O)cc1)c1ccccc1
Activity: Non-toxic

structure: O=C1c2c(F)c(F)c(F)c(F)c2C(=O)N1c1ccc(S(=O)(=O)Nc2ncccn2)cc1
Activity: Non-toxic

Ask | Fill in reported Activity for this entry: "CC(=O)NS(=O)(=O)c1ccc(N2C(=O)c3c(F)c(F)c(F)c(F)c3C2=O)cc1"
Reply | Non-toxic

Ask | Fill in reported Activity for this entry: "O=C1c2c(F)c(F)c(F)c(F)c2C(=O)N1c1ccc(S(=O)(=O)Nc2nccs2)cc1"
Reply | Non-toxic

Where do these numbers come from? They come from ChEMBL document CHEMBL2046301.
